species on record: Rattus norvegicus; experiment: Open TG-GATES - Regimen: Daily Repeat; format: toxicity, organism-based, Sprague-Dawley; design: regimen Daily Repeat, gender Male, age 6 weeks; settings: in vivo, po, 10 mg/kg, […], tissue Blood, route gavage, dose level Low, time 14 day
Here the recorded Plat is given for each entry.
VALUE_TYPE: Plat (x10_4/uL)

>>> reported_result("CC1=C(/C=C/C(C)=C/C=C/C(C)=C/CO)C(C)(C)CCC1")
107.1
>>> reported_result("CC(C)OC(=O)C(C)(C)Oc1ccc(C(=O)c2ccc(Cl)cc2)cc1 [FENOFIBRATE]")
123.9
>>> reported_result("CN(C)CCN(Cc1cccs1)c1ccccn1")
116
>>> reported_result("CN(C)CCCN1c2ccccc2CCc2ccccc21")
108.3

----------
Here the recorded PL is given for each entry.
species: Rattus norvegicus; assay: Open TG-GATES - Regimen: Daily Repeat; assay type: toxicity, organism-based, Sprague-Dawley; parameters: regimen Daily Repeat, gender Male, age 6 weeks; details: in vivo, po, 1000 mg/kg, […], tissue Plasma, route gavage, dose level High, time 28 day
VALUE_TYPE: PL (mg/dL)

>>> reported_result("COc1ccc2[nH]c([S+]([O-])Cc3ncc(C)c(OC)c3C)nc2c1 (stereo unspecified) [OMEPRAZOLE]")
185.8
>>> reported_result("CCOC(=O)CCC(=O)O[C@H]1[C@H](O[C@@H]2[C@@H](C)[C@H](O[C@H]3C[C@@](C)(OC)[C@@H](O)[C@H](C)O3)[C@@H](C)C(=O)O[C@H](CC)[C@@](C)(O)[C@H](O)[C@@H](C)C(=O)[C@H](C)C[C@@]2(C)O)O[C@H](C)C[C@@H]1N(C)C [ERYTHROMYCIN ETHYLSUCCINATE]")
138
>>> reported_result("NC(N)=Nc1nc(CSCCC(N)=NS(N)(=O)=O)cs1 [FAMOTIDINE]")
121.2
>>> reported_result("COC1=CC(=O)C[C@@H](C)[C@]12Oc1c(Cl)c(OC)cc(OC)c1C2=O [GRISEOFULVIN]")
138
>>> reported_result("CCOc1ccc(NC(=O)CC(C)O)cc1 (stereo unspecified) [BUCETIN]")
155.8
>>> reported_result("CC(C)OC(=O)C(C)(C)Oc1ccc(C(=O)c2ccc(Cl)cc2)cc1 [FENOFIBRATE]")
139.8

----------
species: Rattus norvegicus; test: Open TG-GATES - Regimen: Single; format: toxicity, organism-based, Sprague-Dawley; design: regimen Single, gender Male, age 6 weeks; conditions: in vivo, po, 0 mg/kg, 6 h, tissue Blood, route gavage, dose level Control
VALUE_TYPE: APTT (s)

>>> reported_result("CN(C)CCN(Cc1cccs1)c1ccccn1")
20.7
>>> reported_result("NNC(=O)c1ccncc1")
19.9
>>> reported_result("CC/C(=C(\\c1ccccc1)c1ccc(OCCN(C)C)cc1)c1ccccc1")
16.1
>>> reported_result("CCCNC(=O)NS(=O)(=O)c1ccc(Cl)cc1 [CHLORPROPAMIDE]")
18.3
>>> reported_result("COc1ccc2[nH]c([S+]([O-])Cc3ncc(C)c(OC)c3C)nc2c1 (stereo unspecified)")
19.3
>>> reported_result("CCOc1ccc(NC(=O)CC(C)O)cc1 (stereo unspecified)")
16.7
>>> reported_result("CN(C)CCCN1c2ccccc2CCc2ccc(Cl)cc21")
16.6
>>> reported_result("CCOC(=O)CCC(=O)O[C@H]1[C@H](O[C@@H]2[C@@H](C)[C@H](O[C@H]3C[C@@](C)(OC)[C@@H](O)[C@H](C)O3)[C@@H](C)C(=O)O[C@H](CC)[C@@](C)(O)[C@H](O)[C@@H](C)C(=O)[C@H](C)C[C@@]2(C)O)O[C@H](C)C[C@@H]1N(C)C [ERYTHROMYCIN ETHYLSUCCINATE]")
22.9
>>> reported_result("CC1=C(/C=C/C(C)=C/C=C/C(C)=C/CO)C(C)(C)CCC1")
21.6
>>> reported_result("NC(N)=Nc1nc(CSCCC(N)=NS(N)(=O)=O)cs1")
20
>>> reported_result("CN1C(=O)CN=C(c2ccccc2)c2cc(Cl)ccc21")
16.6

----------
Here the recorded Eos is given for each entry.
organism: Rattus norvegicus; assay: Open TG-GATES - Regimen: Daily Repeat; format: toxicity, organism-based, Sprague-Dawley; design: regimen Daily Repeat, gender Male, age 6 weeks; conditions: in vivo, po, 300 mg/kg, […], tissue Blood, route gavage, dose level Middle, time 7 day
VALUE_TYPE: Eos (%)

>>> reported_result("COc1ccc2[nH]c([S+]([O-])Cc3ncc(C)c(OC)c3C)nc2c1 (stereo not given)")
1
>>> reported_result("CCOc1ccc(NC(=O)CC(C)O)cc1 (stereo not given)")
1
>>> reported_result("CCOC(=O)CCC(=O)O[C@H]1[C@H](O[C@@H]2[C@@H](C)[C@H](O[C@H]3C[C@@](C)(OC)[C@@H](O)[C@H](C)O3)[C@@H](C)C(=O)O[C@H](CC)[C@@](C)(O)[C@H](O)[C@@H](C)C(=O)[C@H](C)C[C@@]2(C)O)O[C@H](C)C[C@@H]1N(C)C [ERYTHROMYCIN ETHYLSUCCINATE]")
1
>>> reported_result("COC1=CC(=O)C[C@@H](C)[C@]12Oc1c(Cl)c(OC)cc(OC)c1C2=O")
0.6
>>> reported_result("NC(N)=Nc1nc(CSCCC(N)=NS(N)(=O)=O)cs1")
1

----------
species on record: Rattus norvegicus; assay: Open TG-GATES - Regimen: Daily Repeat; type: toxicity, organism-based, Sprague-Dawley; set-up: regimen Daily Repeat, gender Male, age 6 weeks; settings: in vivo, po, 300 mg/kg, […], tissue Blood, route gavage, dose level Middle, time 14 day
Checkbox rule: MCV lower than 60 fL = Condition met; MCV not lower than 60 fL = Condition not met.

>>> answer_label("COc1ccc2[nH]c([S+]([O-])Cc3ncc(C)c(OC)c3C)nc2c1 (stereo not given)")
"Condition met"
>>> answer_label("COC1=CC(=O)C[C@@H](C)[C@]12Oc1c(Cl)c(OC)cc(OC)c1C2=O")
"Condition not met"

----------
species on record: Rattus norvegicus; experiment: Open TG-GATES - Regimen: Daily Repeat; assay type: toxicity, organism-based, Sprague-Dawley; design: regimen Daily Repeat, gender Male, age 6 weeks; settings: in vivo, po, 0 mg/kg, […], tissue Blood, route gavage, dose level Control, time 28 day
VALUE_TYPE: MCHC

>>> reported_result("CN1C(=O)CN=C(c2ccccc2)c2cc(Cl)ccc21 [DIAZEPAM]")
"33.3%"
>>> reported_result("CCOC(=O)CCC(=O)O[C@H]1[C@H](O[C@@H]2[C@@H](C)[C@H](O[C@H]3C[C@@](C)(OC)[C@@H](O)[C@H](C)O3)[C@@H](C)C(=O)O[C@H](CC)[C@@](C)(O)[C@H](O)[C@@H](C)C(=O)[C@H](C)C[C@@]2(C)O)O[C@H](C)C[C@@H]1N(C)C [ERYTHROMYCIN ETHYLSUCCINATE]")
"34.6%"
>>> reported_result("NC(N)=Nc1nc(CSCCC(N)=NS(N)(=O)=O)cs1 [FAMOTIDINE]")
"35.3%"
>>> reported_result("COC1=CC(=O)C[C@@H](C)[C@]12Oc1c(Cl)c(OC)cc(OC)c1C2=O [GRISEOFULVIN]")
"34%"
>>> reported_result("COc1ccc2[nH]c([S+]([O-])Cc3ncc(C)c(OC)c3C)nc2c1 (stereo not drawn) [OMEPRAZOLE]")
"34.8%"
>>> reported_result("CCOc1ccc(NC(=O)CC(C)O)cc1 (stereo not drawn) [BUCETIN]")
"34.9%"
>>> reported_result("CC1=C(/C=C/C(C)=C/C=C/C(C)=C/CO)C(C)(C)CCC1 [RETINOL]")
"35.5%"
>>> reported_result("CN(C)CCCN1c2ccccc2CCc2ccccc21 [IMIPRAMINE]")
"33.5%"
>>> reported_result("O=C(CCCN1CCC(O)(c2ccc(Cl)cc2)CC1)c1ccc(F)cc1 [HALOPERIDOL]")
"33.4%"
>>> reported_result("NNC(=O)c1ccncc1 [ISONIAZID]")
"33.8%"
>>> reported_result("CCCNC(=O)NS(=O)(=O)c1ccc(Cl)cc1 [CHLORPROPAMIDE]")
"32.9%"
>>> reported_result("CC(C)OC(=O)C(C)(C)Oc1ccc(C(=O)c2ccc(Cl)cc2)cc1 [FENOFIBRATE]")
"33.9%"
>>> reported_result("CN(C)CCN(Cc1cccs1)c1ccccn1")
"34.3%"

----------
organism: Rattus norvegicus; experiment: Open TG-GATES - Regimen: Daily Repeat; type: toxicity, organism-based, Sprague-Dawley; parameters: regimen Daily Repeat, gender Male, age 6 weeks; details: in vivo, po, 0 mg/kg, […], tissue Liver, route gavage, dose level Control, time 28 day
Here the recorded LIVER is given for each entry.
VALUE_TYPE: LIVER

>>> reported_result("CCCNC(=O)NS(=O)(=O)c1ccc(Cl)cc1 [CHLORPROPAMIDE]")
"14.6 g"
>>> reported_result("CC1=C(/C=C/C(C)=C/C=C/C(C)=C/CO)C(C)(C)CCC1 [RETINOL]")
"15.6 g"
>>> reported_result("O=C(CCCN1CCC(O)(c2ccc(Cl)cc2)CC1)c1ccc(F)cc1 [HALOPERIDOL]")
"16.7 g"
